Values from PubChem BioAssay AID2060499

What viability, T/C was measured for each of the following?
test system: 777334-354-R2-J4-PDC tumor spheroids with HUVEC/MSC, viability; experiment: Anticancer human tumor 777334-354-R2-J4-PDC patient-derived pancreatic adenocarcinoma cell line growth inhibition [GQUAD]; settings: second compound 0.316 µM; first compound 0.0316 µM; hits give low values;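 also: spheroids exposed to compounds for 7 days before readout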
Field format: number, assumed %, no unit text.

# input Return viability, T/C for the following compound: COc1cccc2c1C(=O)c1c(O)c3c(c(O)c1C2=O)CC(O)(C(=O)CO)CC3OC1CC(N)C(O)C(C)O1 (stereo not given) + Cc1[nH]c2ccc(F)cc2c1-c1nc2c3cccnc3c3ncccc3c2[nH]1
# output 74.8

# input Return viability, T/C for the following compound: CC(C)(O)C1CCC(Nc2ccc3ncc(-c4cccc(C(F)(F)F)c4)n3n2)CC1 (stereo not given) + Cc1cnc(CNC(=O)c2c(=O)c3ccc(N4CCCN(C)CC4)nc3n3c2sc2ccccc23)cn1
# output 80.8

# input Return viability, T/C for the following compound: CCc1c2c(nc3ccc(O)cc13)-c1cc3c(c(=O)n1C2)COC(=O)[C@]3(O)CC + CN(C)c1ccc(Nc2c3ccc(NC(=O)CCN4CCCC4)cc3nc3cc(NC(=O)CCN4CCCC4)ccc23)cc1
# output 21.4

# input Return viability, T/C for the following compound: Cn1ncnc1[C@H]1c2n[nH]c(=O)c3cc(F)cc(c23)N[C@@H]1c1ccc(F)cc1 + CN(C)c1ccc(Nc2c3ccc(NC(=O)CCN4CCCC4)cc3nc3cc(NC(=O)CCN4CCCC4)ccc23)cc1
# output 87.9

# input Return viability, T/C for the following compound: O=C(c1cc(Cc2n[nH]c(=O)c3ccccc23)ccc1F)N1CCN(C(=O)C2CC2)CC1 + Cc1cnc(CNC(=O)c2c(=O)c3ccc(N4CCCN(C)CC4)nc3n3c2sc2ccccc23)cn1
# output 79.9
